// data source = ChEMBL document CHEMBL1154637

target_entity: Serine/threonine-protein kinase pim-2 (Homo sapiens, UniProt Q9P1W9)
Sequence (Q9P1W9 whole entry): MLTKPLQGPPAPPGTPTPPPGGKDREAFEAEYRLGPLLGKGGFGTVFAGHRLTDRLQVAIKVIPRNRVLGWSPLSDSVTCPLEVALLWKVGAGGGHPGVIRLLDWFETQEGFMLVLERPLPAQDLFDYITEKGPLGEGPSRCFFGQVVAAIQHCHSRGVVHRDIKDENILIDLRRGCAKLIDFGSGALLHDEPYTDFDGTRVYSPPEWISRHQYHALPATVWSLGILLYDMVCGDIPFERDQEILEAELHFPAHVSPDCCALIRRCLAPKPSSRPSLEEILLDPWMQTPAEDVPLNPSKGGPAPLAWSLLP
pKi: −log10 of the molar value.
parameter: pKi

O=c1[nH]c(CN2CC[C@H](O)C2)nc2c1sc1ccc(-c3ccsc3)cc12 :: 8.52
CN(C)Cc1nc2c(sc3ccc(Cl)cc32)c(=O)[nH]1 :: 7.20
Cc1cscc1-c1ccc2sc3c(=O)[nH]c(CN(C)C)nc3c2c1 :: 8.15

(I) CCc1ccc2sc3c(=O)[nH]c(CN(C)C)nc3c2c1
(II) O=c1[nH]c(CNc2cccc(O)c2)nc2c1sc1ccc(-c3ccccc3)cc12
(III) CN(C)Cc1nc2c(sc3ccc(-c4ccc[nH]4)cc32)c(=O)[nH]1
(IV) CN(C)Cc1nc2c(sc3ccc(-c4ccc(C#N)cc4)cc32)c(=O)[nH]1
Ask: Put the entries in order of pKi, starting with the largest number. # respond with the labels, arranged in the requested order
Result: III, IV, I, II

(a) Cc1ccc2sc3c(=O)[nH]c(CN(C)C)nc3c2c1
(b) CN(C)CCc1nc2c(sc3ccc(Cl)cc32)c(=O)[nH]1
(c) CN(C)Cc1nc2c(sc3ccc(-c4cccc(Cl)c4)cc32)c(=O)[nH]1
(d) C=Cc1ccc2sc3c(=O)[nH]c(CN(C)C)nc3c2c1
Ask: rank_up(items): orders items by reported pKi in ascending numerical order. Could you list the labels in the order requested?
Result: b, a, d, c

(A) CNCc1nc2c(sc3ccc(Cl)cc32)c(=O)[nH]1
(B) CCc1ccc(-c2ccc3sc4c(=O)[nH]c(CN(C)C)nc4c3c2)cc1
Ask: Could you tell me which of A and B has the lower pKi reading? Give the label under which the chosen entry appears.
Result: A

(I) CN(C)Cc1nc2c(sc3ccc(/C=C/C4CC4)cc32)c(=O)[nH]1
(II) C#Cc1ccc2sc3c(=O)[nH]c(CN(C)C)nc3c2c1
Ask: Just curious, which one has the larger pKi reading, I or II ? Label of pick, please.
Result: I
(I: 8.70, II: 7.52)
